B1: Caulobacter ParB omega fusion; a variant is named by its letters at X, in order, B8GW30 (parent)
chain: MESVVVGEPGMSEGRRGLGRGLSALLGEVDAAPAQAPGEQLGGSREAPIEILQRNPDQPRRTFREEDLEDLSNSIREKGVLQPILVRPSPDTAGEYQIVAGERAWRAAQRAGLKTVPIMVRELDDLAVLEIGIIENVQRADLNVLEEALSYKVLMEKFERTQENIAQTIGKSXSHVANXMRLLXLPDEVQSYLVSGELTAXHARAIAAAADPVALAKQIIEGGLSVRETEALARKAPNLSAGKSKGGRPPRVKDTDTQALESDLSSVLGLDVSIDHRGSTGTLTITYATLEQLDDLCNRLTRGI

Variants of: B1
Protocol notes: one-hybrid fitness for binding NBS DNA (the Noc-binding site; scaled: cognate 1, non-cognate 0); higher = stronger binding
Condition set: with NBS DNA site
The full ranking holds about 81,000 sequences; the median of “one-hybrid fitness for binding NBS DNA” is about -0.1, and the highest 2% start at about 0.36. The sample holds the highest values, similar sequences and a random draw of the others, so the mix is not that of the screen.
Field: one-hybrid fitness for binding NBS DNA. Provide a value for each of the variants that follow.

I have this variant here, "QGKY" , and I need its recorded one-hybrid fitness for binding NBS DNA.
≤ 0.2

Also, "KRQN" please.
≤ 0.2

Now the same for "QQEY"
≤ 0.2

Request: "QSKY"
0.517

Do the same for "RHCP" please
≤ 0.2

Another variant: "QSGR"
0.547

Please give the result for "QREE" too.
≤ 0.2

What about "QPKY" ?
≤ 0.2

Can you handle "AEMG" next?
≤ 0.2

Now this one: "CVKA"
≤ 0.2

And then "RFCR" , what is it?
≤ 0.2

Here is the next variant: "RSST"
0.426

Same question, "RQFS" this time
0.206

Here is the next variant: "QKDT"
0.401

Param item: "RHRS"
0.585

And for "QHQY" ?
≤ 0.2

Further, for "DRKA" ?
≤ 0.2

Now the variant "RWST"
≤ 0.2

Similarly, "RICR" ?
0.369

Would you kindly repeat that for "DQQR" ?
≤ 0.2

What do you get for "QQEG" ?
≤ 0.2

Follow-up entry: "TMRV"
≤ 0.2

Try the variant "RCST"
0.531

And for "HHNR" ?
≤ 0.2

"RHNS" , same question.
0.505

Next entry: "RSCR"
0.38

Next variant: "IQAC"
≤ 0.2

Continue with "RHNH"
≤ 0.2

Another: "CRHA"
≤ 0.2

Request: "RKQS"
0.543

Please give the result for "QTGR" too.
0.813

Same again, this time with "KRDS"
0.28

And "KRSH" ?
0.205

Thanks! And "RPST" ?
≤ 0.2

How about this variant: "RQYT"
0.353

Further, for "RQPT" ?
≤ 0.2

Also "NTES" ?
≤ 0.2

Next entry: "RICH"
≤ 0.2

Please give the result for "RHDS" too.
≤ 0.2

Would you kindly repeat that for "QSGH" ?
≤ 0.2

# iterate: "YATH"
≤ 0.2

Further, for "SSHR" ?
0.261

What do we get for "RHSF" ?
≤ 0.2

Please answer likewise for "QCVA"
0.298

Then what about the variant "RISP" ?
≤ 0.2

Also, "QHVY" please.
≤ 0.2

Field entry: "QKNN"
0.203

And the next one, "RDST" ?
≤ 0.2

Moving on to the next variant: "NRKA"
≤ 0.2

Repeat with "QQSR"
0.635

Also need "YAHE" , thanks.
≤ 0.2

Also "QQSC" , if possible.
≤ 0.2

Likewise for "RHRN" ?
≤ 0.2

Repeat with "RHQN"
≤ 0.2

Here is the next variant: "TRYP"
≤ 0.2

Another variant to look at: "RQAH"
≤ 0.2

Repeat with "RTQD"
≤ 0.2

Then what about the variant "RVIR" ?
0.242

// next record "RCCR"
0.45

And then "QKNT" , what is it?
0.639

Next variant up: "RHYS"
0.376

And what about the variant "GLEG" ?
≤ 0.2

Also, "QIGS" please.
0.295

Item: "QIGD"
≤ 0.2

Also need "KRSS" , thanks.
0.421

Moving on to the next variant: "QSGP"
≤ 0.2

Same for "QRVA"
0.511

Then "QIKD" ?
≤ 0.2

Would you mind doing "HGWD" as well?
≤ 0.2

"QQWY" , same question.
≤ 0.2

How about "RKQN" ?
≤ 0.2

Ok, now "QPVA"
≤ 0.2

Same thing, different variant: "RHQH"
≤ 0.2

Query "RHHS" next
0.443

Subsequent entry: "VTAR"
≤ 0.2

Next variant up: "KRQH"
0.221

Would you mind doing "TTVG" as well?
≤ 0.2

What would you report for "RQRT" ?
0.615

Next variant up: "TPPQ"
≤ 0.2

Please give the result for "RTQH" too.
≤ 0.2

Further, for "QHKY" ?
0.529

Another variant: "QCKY"
0.59

Moving on to the next variant: "CDGK"
≤ 0.2
